This collection of values is drawn from patent US10363251B2.

Target or test system: TLR9 (Homo sapiens, UniProt Q9NR96)
Construct: expressed in transfected cells; host or cells: HEK293
Sequence (Q9NR96 26-1032): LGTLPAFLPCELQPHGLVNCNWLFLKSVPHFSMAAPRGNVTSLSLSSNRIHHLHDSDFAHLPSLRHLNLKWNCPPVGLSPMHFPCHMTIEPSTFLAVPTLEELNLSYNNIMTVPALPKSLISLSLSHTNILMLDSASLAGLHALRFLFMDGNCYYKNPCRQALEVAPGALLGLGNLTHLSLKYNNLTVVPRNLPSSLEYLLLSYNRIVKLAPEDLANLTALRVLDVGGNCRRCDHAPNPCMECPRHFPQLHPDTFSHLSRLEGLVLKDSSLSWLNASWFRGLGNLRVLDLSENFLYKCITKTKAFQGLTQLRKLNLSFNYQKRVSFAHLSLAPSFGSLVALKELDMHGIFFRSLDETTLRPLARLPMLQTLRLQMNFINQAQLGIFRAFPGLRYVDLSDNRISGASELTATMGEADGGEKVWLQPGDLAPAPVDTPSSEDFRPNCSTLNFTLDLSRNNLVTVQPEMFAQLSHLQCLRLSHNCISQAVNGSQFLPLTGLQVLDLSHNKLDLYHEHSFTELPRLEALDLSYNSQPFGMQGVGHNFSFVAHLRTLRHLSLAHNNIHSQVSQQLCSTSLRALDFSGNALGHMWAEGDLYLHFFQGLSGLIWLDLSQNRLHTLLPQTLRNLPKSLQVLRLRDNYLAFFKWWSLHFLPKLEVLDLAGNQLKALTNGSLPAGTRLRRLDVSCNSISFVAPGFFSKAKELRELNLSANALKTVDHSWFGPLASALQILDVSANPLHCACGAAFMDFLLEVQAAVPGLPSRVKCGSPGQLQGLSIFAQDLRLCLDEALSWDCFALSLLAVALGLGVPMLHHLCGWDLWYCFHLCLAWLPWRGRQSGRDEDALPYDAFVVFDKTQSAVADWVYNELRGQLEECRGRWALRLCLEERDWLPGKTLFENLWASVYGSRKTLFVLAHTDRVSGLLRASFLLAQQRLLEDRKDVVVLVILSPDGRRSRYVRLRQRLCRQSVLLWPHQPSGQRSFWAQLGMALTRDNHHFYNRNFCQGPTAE
Measurement notes: TLR9 screening of (+)-morphinan library, SEAP reporter in HEK293 cells expressing TLR9
Format: cell-based
Experimental conditions: 10 μM; activator ODN2006; control (no activator) 0.14, activator 1.42 OD
Value type: OD 650 nm (mean ± sd) (OD)
Your answer is read as OD, so omit the unit and give the number.

Annotate the compound C=CCN1CC[C@@]23c4c5c(-c6ccoc6)cc(OC)c4O[C@@H]2C(=O)CCC3C1C5 (stereo partly shown) with its measured OD 650 nm (mean ± sd).
0.12

Annotate the compound C=C(C)c1cc(OC)c(O)c2c1CC1C3CCC(=O)C[C@@]23CCN1CC1CC1 (stereo partly shown) with its measured OD 650 nm (mean ± sd).
0.10

Annotate the compound COc1cc(Br)c2c3c1O[C@@H]1C(=O)CCC4C(C2)NCC[C@]341 (stereo partly shown) with its measured OD 650 nm (mean ± sd).
0.19

Annotate the compound `COC1=C[C@]2(O)[C@@H]3Cc4ccc(OC)c(O)c4[C@]2(CCN3C)CC1=O` with its measured OD 650 nm (mean ± sd).
0.94

Annotate the compound `COC1=CC=C2[C@@H]3Cc4ccc(OC)c5c4[C@]2(CCN3)[C@@H]1O5` with its measured OD 650 nm (mean ± sd).
0.12

Annotate the compound C=CCN1CC[C@@]23CC(=O)CCC2C1Cc1ccc(OC)c(O)c13 (stereo partly shown) with its measured OD 650 nm (mean ± sd).
0.16

Annotate the compound `COc1ccc2c3c1O[C@@H]1[C@H](O)CC[C@@H]4[C@H](C2)N(CC2CC2)CC[C@]341` with its measured OD 650 nm (mean ± sd).
0.21
